test system: IGROV-1; assay: NCI tumour cell line growth inhibition, 48 h
Activity calls are given as the source filed them. Cut-off read from the data, not from the text of the source: active = GI50 up to about 1.1 µM and inactive = higher.
Below, each entry is listed with its recorded GI50.

molecule | GI50
c1ccc(CSP234N5CCN2CCN3CCN4CC5)c(CSP234N5CCN2CCN3CCN4CC5)c1 | > 100 µM (inactive)
CCCCOC(=O)NC(Nc1cccc(C(F)(F)F)c1)(C(F)(F)F)C(F)(F)F | 49.5 µM (inactive)

input: Entry under review: Cc1c(C)c2cc3c(=O)ccoc3c(C)c2oc1=O . Reported GI50?
output: 39.8 µM (inactive)

input: Entry under review: C1COCCSC2=C(SCCO1)SC(=C1SC3=C(SCCOCCOCCS3)S1)S2 . Reported GI50?
output: > 100 µM (inactive)

input: Entry under review: CCSC1=CC(Cc2ccc(OC)cc2)N(C(=O)OC)C1 (stereo not given) . Reported GI50?
output: > 100 µM (inactive)

input: Entry under review: OCCCN=C1CCCCC1 . Reported GI50?
output: > 100 µM (inactive)

input: Entry under review: CCCCCCCC(=O)OC[n+]1ccc(-c2c(COC(=O)NC(C)C)c(COC(=O)NC(C)C)c3n2CCC3)cc1 . Reported GI50?
output: 31 µM (inactive)

input: Entry under review: COc1cc(CNc2nc3ccccc3n2Cc2ccccc2)cc(CN2CCOCC2)c1O . Reported GI50?
output: 52 µM (inactive)

input: Entry under review: Cc1cccc2c(N)c3cccc(C(=O)NCC[N+]4(Cc5ccc([N+](=O)[O-])cc5)CCOCC4)c3nc12 . Reported GI50?
output: 20.6 µM (inactive)

input: Entry under review: CC1=C(C(N)=O)C(c2ccncc2)C(C#N)C(=O)N1 (stereo not given) . Reported GI50?
output: > 100 µM (inactive)

* * *

test system: XF498; assay: NCI tumour cell line growth inhibition, 48 h
The source made the active and inactive calls. No stated cut-off is given here; in the data, active = GI50 up to about 1.1 µM and inactive = higher.
Hi there, use one of these labels in your reply, thanks! T = active, F = inactive

Solved cases below.
molecule | target-of-assay | category-label
COc1ccc(/N=C/c2ccc(N(CCC#N)S(=O)(=O)c3ccccc3)cc2)cc1 | XF498 | F
Cc1ccc(C)c(N2C(=O)C(=O)C(c3nc4ccccc4s3)/C(=N/NC(=O)NN)C2=O)c1 (stereo not given) | XF498 | F
C#CCOCn1cnc2c(S)ncnc21 | XF498 | F

input: Hi, do you know how CC[C@@]1(O)C(=O)OCc2c1cc1n(c2=O)Cc2cc3c(OC)cccc3nc2-1 came out in this test?
output: T

input: Hi, do you know how Cc1c(/N=C\c2ccc(N(CCC#N)CCC#N)cc2)c(=O)n(-c2ccccc2)n1C came out in this test?
output: F

* * *

Below, each entry is listed with its recorded GI50.
test system: 786-0; experiment: NCI tumour cell line growth inhibition, 48 h
The source made the active and inactive calls. Cut-off read from the data, not from the text of the source: active = GI50 up to about 1.1 µM and inactive = higher.

Answered cases to consult:
smiles-entry | GI50
COc1cc(-c2cc(=O)c3c(OC)c(OC)c(OC)c(OC)c3o2)cc(OC)c1OC | 58.9 µM (inactive)
Cc1cc(C)c2[s+]snc2c1 | > 100 µM (inactive)

input: Param readout = GI50; param system = 786-0; param query = O=C(OC[C@H]1O[C@@H](OC(=O)c2cc(O)c(O)c(O)c2)[C@H](OC(=O)c2cc(O)c(O)c(O)c2)[C@@H](OC(=O)c2cc(O)c(O)c(O)c2)[C@@H]1OC(=O)c1cc(O)c(O)c(O)c1)c1cc(O)c(O)c(O)c1 ; response: value
output: 4.99 µM (inactive)

input: Param readout = GI50; param system = 786-0; param query = Cc1ccc(NC(=S)NNC(=O)c2cc(-c3ccccc3)nc3ccccc23)cc1 ; response: value
output: 13 µM (inactive)

* * *

system: PC-3; assay: NCI tumour cell line growth inhibition, 48 h
Calls of active or inactive are those of the source. No stated cut-off is given here; in the data, active = GI50 up to about 1.1 µM and inactive = higher.
Below, each entry is listed with its recorded GI50.

Answered cases to consult:
compound | GI50
COc1ccc(/C=C2\CN(C)CC3=C2OC(N)=C(C#N)C3c2ccc(OC)cc2)cc1 (stereo unspecified) | > 25.8 µM (inactive)
CC(C)(Oc1ccc(C(=O)c2ccc(Cl)cc2)cc1Cl)C(=O)N1CCN(CCO)CC1 | 3.93 µM (inactive)
CC(C)N(/C(F)=N\C(=O)Nc1ccccc1C(F)(F)F)C(C)C | 33.3 µM (inactive)

input: Entry under review: CC(C)(C)OC(=O)/C=C/[C@@H](CCC(=O)/C=C/[C@H](/C=C\CCCC(=O)O)NC1(c2ccccc2)c2ccccc2-c2ccccc21)O[Si](C)(C)C(C)(C)C . Reported GI50?
output: 13.5 µM (inactive)

input: Entry under review: CCOC(=O)C1=C(C)NC(=O)NC1c1ccc(N(CCCl)CCCl)cc1Cl (stereo unspecified) . Reported GI50?
output: 15.2 µM (inactive)

input: Entry under review: CCn1nc(-c2ccccc2)c2c1N(C)c1ccccc1-n1c(-c3ccccc3)nnc1-2 . Reported GI50?
output: 13.2 µM (inactive)

input: Entry under review: O=C(/C=C/c1ccc(OCc2ccccc2)cc1)NCc1ccc(C(=O)NCCc2ccccc2)cc1 . Reported GI50?
output: > 100 µM (inactive)

input: Entry under review: COc1ccccc1NC(=S)N/N=C/c1c(C)n(C)n(-c2ccccc2)c1=O . Reported GI50?
output: > 100 µM (inactive)

input: Entry under review: O=[As]O . Reported GI50?
output: > 100 µM (inactive)

* * *

test system: A549; experiment: NCI tumour cell line growth inhibition, 48 h
Calls of active or inactive are those of the source. No stated cut-off is given here; in the data, active = GI50 up to about 1.1 µM and inactive = higher.
measurement-type: GI50

compound | target-of-assay | GI50
Cn1c2ccccc2n2c3ncccc3c(=O)c(C#N)c12 | A549 | 5.2 µM (inactive)
C=CCCCCCCCCCCCC1CCC(CC)N1 (centres undefined) | A549 | 10.3 µM (inactive)
COc1ccc2c(C)cc(N/N=C/c3sccc3C)nc2c1 | A549 | 13.3 µM (inactive)
Cc1nc2cccc([N+](=O)[O-])c2c(NCCCN(C)C)c1C | A549 | 60.4 µM (inactive)
CO[C@]12CC(=O)C3(C(C[C@H]4CC5CC[C@H]6C[C@@H](OC(C)=O)CC[C@]6(OC(C)=O)C5C[C@@]43C)C1)C1C[C@H]3[C@@H]4CC[C@H]5C[C@@H](OC(C)=O)CC[C@]5(OC(C)=O)[C@H]4CC[C@]3(C)C12 (some centres undefined) | A549 | 61.2 µM (inactive)
OC1COC(n2c3ccc(Br)cc3c3ccc4c5ccccc5[nH]c4c32)C(O)C1O (centres undefined) | A549 | 2.61 µM (inactive)

input: Entry under review: CC1=NN(C(=O)CC(=O)NC(=O)CC(=O)Nc2ccccc2F)C(=O)C1/N=N/c1ccc([N+](=O)[O-])cc1 (centres undefined) . Reported GI50?
output: 35 µM (inactive)

input: Entry under review: Nc1ccc(/C=C/c2ccnc3ccccc23)cc1 . Reported GI50?
output: 19.4 µM (inactive)

input: Entry under review: O=C(/C=C/c1ccc(O)cc1)c1ccc2c(c1)OCO2 . Reported GI50?
output: 19.4 µM (inactive)

* * *

Below, each entry is listed with its recorded GI50.
system: HOP-62; assay: NCI tumour cell line growth inhibition, 48 h
Activity calls are given as the source filed them. No stated cut-off is given here; in the data, active = GI50 up to about 1.1 µM and inactive = higher.

Answered cases to consult:
molecule | measurement-type | result
O=C(Nn1c(-c2cccs2)nc2ccc(I)cc2c1=O)c1ccccc1 | GI50 | 40.7 µM (inactive)
CC1(C)C2CCC3(OCCO3)C1C(O)C2 (stereo unspecified) | GI50 | > 100 µM (inactive)
CC(C)S(=O)(=O)ON1C(=O)c2ccc([N+](=O)[O-])cc2C1=O | GI50 | > 100 µM (inactive)
N#CC(C#N)=CNC(N)=S | GI50 | > 100 µM (inactive)
O=c1[nH]c(=O)n(C2CC(O)C(CO)O2)cc1OC/C=C/Cc1ccccc1 (stereo unspecified) | GI50 | > 100 µM (inactive)

Switching to the query record.
input: Entry under review: COC(=O)[C@@]12OC[C@]34C([C@@H](O)C1O)[C@@]1(C)CC(=O)C(OC(=O)/C=C(/c5ccccc5)C(F)(F)F)=C(C)C1C[C@H]3OC(=O)[C@H](O)[C@H]42 (stereo partly specified) . Reported GI50?
output: 12.4 µM (inactive)

* * *

system: RPMI-8226; assay: NCI tumour cell line growth inhibition, 48 h
Activity calls are given as the source filed them. No stated cut-off is given here; in the data, active = GI50 up to about 1.1 µM and inactive = higher.
Hi there, use one of these labels in your reply, thanks! label 1 = active, label 0 = inactive

Solved cases below.
compound | category-label
Cc1ccc([N+](=O)[O-])cc1S(=O)(=O)Nc1ccc(C2=NNC(c3cccs3)C2)cc1 (stereo unspecified) | label 0
c1ccc(COc2cccc3cccnc23)cc1 | label 0
CC12C=C[C@]3(CC[C@@H]4[C@@](C)(CO)CCC[C@]4(C)C3CC1)C2 (stereo partly specified) | label 0
COc1cc2c3c(c4ccc(OC)c(OC)c4c2cc1OC)CN1CCC[C@@H]1C3 | label 1
CN(C)/C=C/c1ccncc1 | label 0

From here, focus on the item given below.
input: Hi, do you know how CSC(=S)NN=C1CCCCC1 came out in this test?
output: label 1
